compounds and their reported pIC50
# testedOn: Full length Human HDAC2 (Homo sapiens)
# Construct: Full length Human HDAC2; FLAG (C); host or cells: baculovirus expression system
# protocolText: HDAC2 enzymatic assay (deacetylation of FAM-labeled peptide substrate, microfluidic electrophoresis)
# Format: biochemical
# conditionSet: recombinant enzymatic assay, Table 2, class symbols
# Procedure: HDAC2 and HDAC1 Enzymatic Assay (HDAC2 and HDAC1 IC50 Data) The following describes an assay protocol for measuring the deacetylation of a peptide substrate by HDAC2 or HDAC1. […] The reactions are allowed to proceed at room temperature. […] Terminated plates are analyzed on a microfluidic electrophoresis instrument (Caliper LabChip® 3000, Caliper Life Sciences/Perkin Elmer) which enables electrophoretic separation of de-acetylated product from acetylated substrate. […]
pIC50: −log10 of the molar value.

Examples from the recorded data:
Nc1ccc(-c2ccccc2F)nc1NC(=O)N1CC(C(F)(F)c2ncccn2)C1    6.00 to 6.30
Cn1ccnc1CC1(F)CN(C(=O)Nc2nc(-c3ccc(F)cc3)ccc2N)C1    < 5.70
Nc1ccc(-c2ccc(F)cc2F)nc1NC(=O)N1CC(Cn2cccn2)C1    5.70 to 6.00
Nc1ccc(-c2ccccc2F)nc1NC(=O)N1CC(C(F)(F)c2ncc(F)cn2)C1    6.00 to 6.30
Cc1cnc(CC2CN(C(=O)Nc3nc(-c4ccc(F)cc4F)ccc3N)C2)nc1    < 5.70
Cc1cncc(CC2CN(C(=O)Nc3nc(-c4ccc(F)cc4F)ccc3N)C2)n1    5.70 to 6.00

Param readout= pIC50; system= Full length Human HDAC2 (Homo sapiens); entry= `Cc1ncc(CC2CN(C(=O)Nc3nc(-c4ccc(F)cc4)ccc3N)C2)cn1` ; returns value.
5.70 to 6.00

Under Full length Human HDAC2 (Homo sapiens): pIC50 value of `Nc1ccc(-c2ccc(F)cc2F)nc1NC(=O)N1CC(Cc2cnccn2)C1` ?
6.00 to 6.30

# returns recorded pIC50 (system: Full length Human HDAC2 (Homo sapiens)) for `Nc1ccc(-c2ccc(F)cc2F)nc1NC(=O)N1CC(Cc2ccccn2)C1`
6.00 to 6.30

Checklist item: pIC50 tested on Full length Human HDAC2 (Homo sapiens), entry `COCc1ccc(CC2CN(C(=O)Nc3nc(-c4ccc(F)cc4F)ccc3N)C2)cn1` , value?
< 5.70

Requested read-out pIC50, target or system Full length Human HDAC2 (Homo sapiens), entry `Nc1ccc(-c2ccc(F)cc2)nc1NC(=O)N1CC(C(F)(F)c2ncccn2)C1`
> 6.30

Kindly state the measured pIC50 obtained for `Nc1ccc(-c2ccc(F)cc2)nc1NC(=O)N1CC(C(F)(F)c2ncc(F)cn2)C1` with Full length Human HDAC2 (Homo sapiens).
> 6.30

Hello, I am looking for reported pIC50 with Full length Human HDAC2 (Homo sapiens) for `Nc1ccc(-c2ccc(F)cc2F)nc1NC(=O)N1CC(CCc2ncccn2)C1` . Could you help?
< 5.70

Write down the reported pIC50 of `Cc1ncc(CC2CN(C(=O)Nc3nc(-c4ccc(F)cc4F)ccc3N)C2)cn1` , test system: Full length Human HDAC2 (Homo sapiens).
< 5.70

Request: pIC50, test system Full length Human HDAC2 (Homo sapiens), entry `Nc1ccc(-c2ccc(F)cc2)nc1NC(=O)N1CC(Cc2ccccn2)C1`
6.00 to 6.30

Item `Nc1ccc(-c2ccc(F)cc2)nc1NC(=O)N1CC(Cc2cnc(C(F)(F)F)nc2)C1` with Full length Human HDAC2 (Homo sapiens) - pIC50?
< 5.70

GET /values?readout=pIC50&system=Full length Human HDAC2 (Homo sapiens)&item= `Cc1cnc(CC2CN(C(=O)Nc3nc(-c4ccc(F)cc4)ccc3N)C2)nc1`
6.00 to 6.30

---

The following molecules are shown together with reported pIC50 values.
# testedOn: Full length Human HDAC1 (Homo sapiens)
# Construct: Full length Human HDAC1; His (C); FLAG (C); host or cells: baculovirus expression system
# protocolText: HDAC1 enzymatic assay (deacetylation of FAM-labeled peptide substrate, microfluidic electrophoresis)
# Format: biochemical
# conditionSet: recombinant enzymatic assay, Table 2, class symbols
pIC50: −log10 of the molar value.

Record excerpt, results attached:
Nc1ccc(-c2ccc(F)cc2F)nc1NC(=O)N1CC(Cc2ncc(F)cn2)C1    > 6.30
Cc1ccc(CC2CN(C(=O)Nc3nc(-c4ccc(F)cc4F)ccc3N)C2)nn1    6.00 to 6.30
Nc1ccc(-c2ccc(F)cc2F)nc1NC(=O)N1CC(Cc2nnc(C(F)(F)F)s2)C1    5.70 to 6.00
Nc1ccc(-c2ccc(F)cc2F)nc1NC(=O)N1CC(C(F)(F)c2ncccn2)C1    6.00 to 6.30
Nc1ccc(-c2ccccc2F)nc1NC(=O)N1CC(C(F)(F)c2ncccn2)C1    5.70 to 6.00
Nc1ccc(-c2ccc(F)cc2)nc1NC(=O)N1CC(C(F)(F)c2ncc(F)cn2)C1    > 6.30
COCc1ccc(CC2CN(C(=O)Nc3nc(-c4ccc(F)cc4F)ccc3N)C2)cn1    5.70 to 6.00

The record that follows has no pIC50 shown yet.
Quick check: pIC50 of `Nc1ccc(-c2ccc(F)cc2)nc1NC(=O)N1CC(Cc2ccccn2)C1` ?
> 6.30

---

# testedOn: Full length Human HDAC1 (Homo sapiens, UniProt Q13547)
# Construct: Full length Human HDAC1; His (C); FLAG (C); host or cells: baculovirus expression system
# Sequence (Q13547 whole entry): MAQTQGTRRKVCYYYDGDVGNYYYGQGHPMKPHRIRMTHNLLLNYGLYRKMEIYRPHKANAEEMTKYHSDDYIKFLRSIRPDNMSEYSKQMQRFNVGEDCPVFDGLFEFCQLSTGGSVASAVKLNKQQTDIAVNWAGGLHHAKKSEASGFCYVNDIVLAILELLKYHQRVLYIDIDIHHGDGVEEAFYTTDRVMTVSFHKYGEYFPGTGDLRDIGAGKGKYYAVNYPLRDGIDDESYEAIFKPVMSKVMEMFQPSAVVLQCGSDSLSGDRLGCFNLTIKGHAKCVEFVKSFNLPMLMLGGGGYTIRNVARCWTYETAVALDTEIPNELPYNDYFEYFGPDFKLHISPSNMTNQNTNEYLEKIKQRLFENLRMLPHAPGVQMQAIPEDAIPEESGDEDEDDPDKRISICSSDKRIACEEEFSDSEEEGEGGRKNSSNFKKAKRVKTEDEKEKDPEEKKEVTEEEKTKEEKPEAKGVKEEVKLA
# protocolText: HDAC1 enzymatic assay (deacetylation of FAM-labeled peptide substrate, microfluidic electrophoresis)
# Type: biochemical
# conditionSet: recombinant enzymatic assay, Table 2, class symbols
pIC50: −log10 of the molar value.
propertyLabel: pIC50

Example compounds with recorded pIC50:
Nc1ccc(-c2ccc(F)cc2F)nc1NC(=O)N1CC(Cc2cccnc2)C1 [Compound 3]    6.00 to 6.30
Nc1ccc(-c2ccc(F)s2)nc1NC(=O)N1CC(Cc2ncc(F)cn2)C1 [Compound 61]    > 6.30
Nc1ccc(-c2ccc(F)cc2F)nc1NC(=O)N1CC(Cn2ccnc2)C1 [Compound 31]    < 5.70
Cc1ccnc(CC2CN(C(=O)Nc3nc(-c4ccc(F)cc4F)ccc3N)C2)n1 [Compound 11]    6.00 to 6.30
Nc1ccc(-c2ccc(F)cc2F)nc1NC(=O)N1CC(Cc2ncco2)C1 [Compound 22]    6.00 to 6.30
Cc1cccc(CC2CN(C(=O)Nc3nc(-c4ccc(F)cc4)ccc3N)C2)n1 [Compound 79]    6.00 to 6.30
Cc1ccnc(CC2CN(C(=O)Nc3nc(-c4ccc(F)cc4)ccc3N)C2)n1 [Compound 72]    > 6.30
Cc1nnc(CC2CN(C(=O)Nc3nc(-c4ccc(F)cc4F)ccc3N)C2)s1 [Compound 45]    6.00 to 6.30

Endpoint output: pIC50 of Cn1ccnc1CC1CN(C(=O)Nc2nc(-c3ccc(F)cc3)ccc2N)C1 [Compound 71] . Value?
6.00 to 6.30

Recorded pIC50 of Nc1ccc(-c2ccc(F)cc2)nc1NC(=O)N1CC(Cc2ncc(C(F)F)cn2)C1 [Compound 76] , please.
> 6.30

Looking for the measured pIC50 of Nc1ccc(-c2ccc(F)cc2F)nc1NC(=O)N1CC(Cc2ccccn2)C1 [Compound 2] , can you help?
> 6.30

# pIC50 lookup, item COCc1cnc(CC2CN(C(=O)Nc3nc(-c4ccc(F)cc4)ccc3N)C2)nc1 [Compound 82]
> 6.30

Look up pIC50 for this compound: Cn1ccnc1CC1(F)CN(C(=O)Nc2nc(-c3ccc(F)cc3)ccc2N)C1 [Compound 86]
5.70 to 6.00

---

# testedOn: Full length Human HDAC1 (Homo sapiens)
# Construct: Full length Human HDAC1; His (C); FLAG (C); host or cells: baculovirus expression system
# protocolText: HDAC1 enzymatic assay (deacetylation of FAM-labeled peptide substrate, microfluidic electrophoresis)
# Assay type: biochemical
# conditionSet: recombinant enzymatic assay, Table 2, class symbols
pIC50: −log10 of the molar value.
propertyLabel: pIC50

Nc1ccc(-c2ccc(F)s2)nc1NC(=O)N1CC(Cc2ncccn2)C1 [Compound 66]    > 6.30
Nc1ccc(-c2cccs2)nc1NC(=O)N1CC(Cc2ncc(F)cn2)C1 [Compound 69]    > 6.30

pIC50 for COCc1ccc(CC2CN(C(=O)Nc3nc(-c4ccc(F)cc4)ccc3N)C2)nc1 [Compound 83] ?
> 6.30

Which pIC50 is listed for Nc1ccc(-c2ccc(F)cc2F)nc1NC(=O)N1CC(Cc2cnccn2)C1 [Compound 12] ?
6.00 to 6.30

Fill in the blank: the reported pIC50 of COC1(Cc2nccn2C)CN(C(=O)Nc2nc(-c3ccc(F)cc3)ccc2N)C1 [Compound 87] is ____.
< 5.70

---

Item-by-item account of IC50
# testedOn: Full length Human HDAC2 (Homo sapiens, UniProt Q92769)
# Construct: Full length Human HDAC2; FLAG (C); host or cells: baculovirus expression system
# Sequence (Q92769 whole entry): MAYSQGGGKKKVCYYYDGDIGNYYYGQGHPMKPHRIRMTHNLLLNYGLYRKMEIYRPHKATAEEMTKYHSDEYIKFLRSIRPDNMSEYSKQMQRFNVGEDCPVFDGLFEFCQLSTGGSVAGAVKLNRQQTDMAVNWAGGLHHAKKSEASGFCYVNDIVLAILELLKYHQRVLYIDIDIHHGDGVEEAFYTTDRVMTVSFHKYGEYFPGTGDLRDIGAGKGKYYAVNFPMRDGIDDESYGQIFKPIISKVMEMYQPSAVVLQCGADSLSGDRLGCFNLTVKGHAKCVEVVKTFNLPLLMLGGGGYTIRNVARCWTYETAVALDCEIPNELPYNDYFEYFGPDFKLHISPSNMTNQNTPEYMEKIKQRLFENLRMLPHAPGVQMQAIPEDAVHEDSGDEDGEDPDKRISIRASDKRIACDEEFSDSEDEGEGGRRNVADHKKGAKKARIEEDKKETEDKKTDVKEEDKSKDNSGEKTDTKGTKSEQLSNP
# protocolText: HDAC2 enzymatic assay (deacetylation of FAM-labeled peptide substrate, microfluidic electrophoresis)
# Type: biochemical
# conditionSet: recombinant enzymatic assay, Table 4, numeric
Just the number please, in µM, no unit attached.

Cc1ncc(CC2CN(C(=O)Nc3nc(-c4ccc(F)cc4F)ccc3N)C2)cn1    2.8

Proceed to the following item.
Entry under review: `Nc1ccc(-c2ccc(F)cc2F)nc1NC(=O)N1CC(Cc2ncccn2)C1` . Reported IC50?
0.7
